system: K4 kissing-loop RNA reporter; assay: apparent KD of K4 kissing-loop reporter; higher = weaker reporter binding; settings: Eterna round: R107; input ligand: tryptophan 2.4 mM
apparent KD of K4 kissing-loop reporter values by entry
Write down the numeric answer in nM and omit the unit.

CAUACUAUCAGAAGGAGCGUGGAAUAUUCAUCUGUAUCUAAUACGAGUGAUGUUCGUAAUUCACAGGUAGGUCGCUGAUUAAUAC [whbob_Ex_Arginine_B_2th159] ... 219
GCCGUACGCAUGGAUACCAGCAAUUAUGCUCGUAUCCUAGUGAUGUUAGUGGCGAAUAUUUGCCCUUGGCAGCCAUGCGUACGGC ... 936

Turning now to a further record.
Please state recorded apparent KD of K4 kissing-loop reporter (tested on K4 kissing-loop RNA reporter) of UUCGAUCAGUGAUGUUGAUCAUCAGUCGAAGGAGCGCUAGAGAUAGCAGGUAGGUCGCGACUGCAAGGUGUGAGAACACCUCGAA [Arg A SS t9a]
255

----------
tested on: MS2 coat protein; assay: apparent KD of MS2 coat protein, switch OFF state (with FMN for OFF switches, without FMN for ON switches); designed switch direction (-1 OFF switch, 1 ON switch): 1; higher = weaker reporter binding; conditions: FMN input: 0 or 200 uM; Eterna round: R93 (includes R88 designs)
Would you please tag the item true (1) when its apparent KD of MS2 coat protein is 100 nM or above, and false (0) when it is below?

GGAGCCGACACUGAGGAUAUUCAUAUUAAAACAUGAGGAUCACCCAUGUAGGCCAGAAGGCCUUGGGAGAAGGCAGGCCGGCUCG [Inxebi] ... true (1)
GAAAAACAUGAGGAUCACCCAUGUGAAAAUAUGGGAGGAUAUACAAGGACGAAAGUCAAGGUAGAAGGCCUAAAAG [Mat - Same State 1 - Eli mod - 27] ... false (0)
AACAAACAUGAGGAUCACCCAUGUCAAACAUACCAAGGAUAUGGGAGACGAGACUCGUCACCAGAAGGUGGAAAUU [Maatce] ... true (1)
AUAAAACAUGAGGAUCACCCAUGUAGACAUAUGGGAGGAUAUACUAGAUCGAAAGAUCUAGUAGAAGGUCUUUAAA [JL Mod of Eli 9] ... true (1)
AUAUGAUCAUGUGAGGAUAUCCAUAAUAAAACAUGAGGAUCACCCAUGUAUAGAUACUAAUAAUGGGAGAAGGCACAUGAUCAAU [SS 2 M43] ... false (0)

Okay, now this sequence:
State whether the measured apparent KD of MS2 coat protein reaches 100 nM, counting equality as reaching it, for GGAAGACAUGAGGAUCACCCAUGUGGGAAUAUGGGAGGAUAUACAAAGACGAGAGUCAGAGUAGAAGGCCUAGGCC [salish99-ss1-103(!)]
true (1)

----------
test system: MS2 coat protein; experiment: apparent KD of MS2 coat protein; higher = weaker reporter binding; conditions: Eterna round: R107; input ligand: tryptophan 2.4 mM
Would you please tag the item yes (1) when its apparent KD of MS2 coat protein is 30 nM or above, and no (0) when it is below?

Here are 3 sequences together with their reported answers.
UGUUUUGUGGGAAGGAGCGCAUACUUCACAUGAGGAUCACCCAUGUCAAGACGUGAGUCAGUGCAGGUAGGUCGCCUAGUUAAGA [Same State - Arginine B (Freestyle 16)] ... yes (1)
ACCUGUACGAAAAGUGCAGGACACGAAUAACGAGGACCGGUACGGCCGCCACUCGGAAAAUAACCUGAGGAUCACCCUGGUCGUG [TrypAS 7 #AlternativeMS2 #Zipper #StaticStem] ... yes (1)
AAACAUGAGGAUCACCCAUGUAUACUUAGACGAGGACCGGUACGGCCGCCACUCGAACUUCAAGAUUUGGCGGAUAAUGUAUGUA [JR_Nu22_ExcTryptoA_Sub023] ... no (0)

State whether the measured apparent KD of MS2 coat protein reaches 30 nM, counting equality as reaching it, for UUCAGCUAGUCGGCCGCCACUACAAGAGGAUCACCCUUGUAAUCCUAACACUGCUUCGGCAGUGGUAGGACCGGGACUAGCUGAG
no (0)

Next record, please: CGGCUCAUAAUGGAUACCAGUCCAGCAUAGAAACCUUGACACAUGAGGAUCACCCAUGUUGACCCUUGGCAGCCAUUGAUCAUAC [theeternabot_exclusion_MS2_Theo_B_28]
no (0)

----------
apparent KD of K4 kissing-loop reporter values by entry
test system: K4 kissing-loop RNA reporter; test: apparent KD of K4 kissing-loop reporter; higher = weaker reporter binding; details: Eterna round: R107; input ligand: tryptophan 2.4 mM;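 further: bound reporter read as fluorescence of individual clusters on recovered sequencing chips by microscopy, with normalized cluster intensities fitted with a binding model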
Write down the numeric answer in nM and omit the unit.

AGUGGACGUGUCCGGAGUGAUGUUCCGGAUACCAGACACGAAAGUGUCCCUUGGCAGCCGGAGUGAUGUUCCGGCGUUCACUAAA [Omei KL Theo A Exc B v1] ... 257
UAGUGAUGCUAUGUUAGGUUUUUUAGGGAAGGAGCGCCAAAGAAGGCAGGUAGGUCGCCCUAUAUUCCCAGUGAUGUUGGGUAUU [Skye_Ex_AA] ... 65.5
GGAACGUUGCGGACUAUCGCAUAAAGUCACCGAGGACCGGUACGGCCGCCACUCGCCAGUGAUGUUGGCGUGUUUGCGCGCUGUA [Isteri] ... 117
UAUUAAUAAUUAUUCUAGUGAUGUUAGAUACGAGGACCGGUACGGCCGCCACUCGCUUAUUGGUUUAUAAAUUUUAUAUUAUUUA [JR_SSTryptoA_Sub017] ... 164
CUUGGUGGCUACAUCAGGAAUUGCGGCGGAAAGGAUAUUCAUUGGCGAAGAAGGUUCCAAGUGACGAGUGAUGUUCUUCGUAAGG [theeternabot_sameState_KL_FMN_A_13] ... 779
UGAGAGUACCGGAUGGAGAAAUUGUAUGAUACCAGAGCAGAUUACCUCCCUUGGCAGCAUGCAUCCUGCUAGUGAUGUUGGCAAC [theeternabot_sameState_KL_Theo_A_48] ... 535
UGAUUUAACUGAAGGAGCGGCAAUUGAUAAGUAAAUAUAGUGAUGUUAUAUAAGAUAGAGAGCCAGGUAGGUCGCAGAGGUAGGA [ExArgB.K] ... 127
UUUUACGAGUGAUGUUCGUAUUGUAAUAGUUAGGAUAUCGUUUUUUCGAGAAGGAACUUCGAAGUGAUACGAAAGUAUCGCUUCG [FMN A 10] ... 130
AAUCAAUACAGAAGGAGCGUGACAAUUACUAUUGAUUCAGGAGCUAGUGAUGUUAGCAUUUCACAGGUAGGUCGCUGUACAUUUA [JR_SSArginiB_Sub013] ... 153
UUAUAUCUCUGACUUUCACUUUGCGUAUCUGAGGAUAUCUGAAUUCAGAGAAGGCAGUGAUGUUGCUUUGCUGUGUGUCUGAGAA [AK2 Exc FMN A] ... 372

If you can, please state the reported apparent KD of K4 kissing-loop reporter value of AGUGAUAUAUGAGGAUAUGGGUUGGUUAAUGAGUUAGUUUUAGUGUUGUUUGGUUAGUGAUGUUAUUUAGAAGGCGUGAGUGAUG [sffdsmullin] .
71.8

Next record, please: GCGCGUCAUGGCGGCGGUGACUACGCCGAUACCAGCCGGGAAACCGGCCCUUGGCAGCGGCGCGCCGGAGUGAUGUUCCGACAGA [#2 Exclusion - Theophylline A Attempt #4 (HarryS)]
214

----------
test system: MS2 coat protein; test: apparent KD of MS2 coat protein; designed switch direction (-1 OFF switch, 1 ON switch): -1; higher = weaker reporter binding; conditions: input ligand: microRNA oligo, concentration not stated
apparent KD of MS2 coat protein values by entry
Write down the numeric answer in nM and omit the unit.

AAUUAACAUGUAGGAUAUCUGCACGAUUAGUGCAGAGAAGGACAUGAGGAUCACCCAUGUAUAGCGACUUCGGUCGCAAUAAUU [ENG1/2-B1] (Eterna round: R96, puzzle: Exclusion NG 1) ... 69.5

Please state recorded apparent KD of MS2 coat protein (tested on MS2 coat protein) of AAGUACCGGUGAGGAUAUUUUUAAUAGAGCUUUAUGAUAUACAUGAGGAUCACCCAUGUUACGUUAAAGAAGGCAUCGGAUUAA [Mat - Exclusion NG 2 - Mod of JL - D97] (Eterna round: R96, puzzle: Exclusion NG 2)
13.7

Next record, please: ACAUGAGGAUCACCCAUGUGACCACGAUGGCUGAUGUAGACCUAGGAUAUGUGUGAAUAUCUAUCACAGAAGGAGGUUGACUGG [Deportation 51 - Jieux - Exclusion NG 3] (Eterna round: R96, puzzle: Exclusion NG 3)
34.3

Next record, please: UUAUUAUAUGUAGGAUAUGCAUAUUAUUAUUAUGCAGAAGGACAUGAGGAUCACCCAUGUAUAUUAUUAUUAUAUAUUGUAUAU [Title] (Eterna round: R96, puzzle: Exclusion NG 1)
23.2

Next record, please: UACAUGAGGAUCACCCAUGUCGGGUAAACGAAGGUUACUCAAGAGGAUAUAAAACCGAAAGGGUUUUAGAAGGCUUUUCCUCGA [Eternabot solution 27] (Eterna round: R96, puzzle: Exclusion NG 3)
46
